system: SARS-CoV-2; details: comparative experiments, Examples 1 and 2
Structures can show the parent of a compound that is named as a salt.
PARAMETER MEASURED: % Inh (% inhibition of virus infection) (%)
Form entry: value (%) — number only.

Some compounds with known % Inh (% inhibition of virus infection) results, for comparison:
CCOC(=O)N1CCC(=C2c3ccc(Cl)cc3CCc3cccnc32)CC1 :: 91.4
NC(=O)c1nnn(Cc2cc(Cl)c(C(=O)c3ccc(Cl)cc3)c(Cl)c2)c1N :: 135.1
Nc1nc2nc[nH]c2c(=S)[nH]1 :: 99.9
N=C(N)c1ccc2cc(OC(=O)c3ccc(N=C(N)N)cc3)ccc2c1 [Nafamostat mesylate] :: 89.8
NS(=O)(=O)OC[C@@H]1C[C@@H](n2ccc3c(N[C@H]4CCc5ccccc54)ncnc32)C[C@@H]1O [Pevonedistat hydrochloride] :: 75.1

Param readout= % Inh (% inhibition of virus infection); system= SARS-CoV-2; entry= CN(C)C(=O)COC(=O)Cc1ccc(OC(=O)c2ccc(NC(=N)N)cc2)cc1 [Camostat Mesilate (FOY-305), Camostat Mesilate] ; returns value.
86.9

----------
Assay: Compound cytotoxicity against CaCo-2 cells at 48 hours
Format: cell-based, Human
Settings: human; Table 5, further results of Examples 1 and 2; mean ± spread
Description: The cytotoxicity of the profiled compounds towards CaCo-2 cells at 48 hours was assessed. […] After 48 hours, cytotoxicity was evaluated using both digital phase contrast readout as described above and ATP determination (Cell titre-glo, Promega Corp).
PARAMETER MEASURED: CC50 at 48 h (µM)
Form entry: value (µM) — number only.

For COC(=O)C[C@](O)(CCC(C)(C)O)C(=O)O[C@@H]1C(OC)=C[C@]23CCCN2CCc2cc4c(cc2[C@H]13)OCO4 , what is its reported CC50 at 48 h?
0.07

----------
system: SARS-CoV-2; settings: 10 µM
PARAMETER MEASURED: % Inh. (% Inhibition of SARS-CoV-2)

Some molecules with known % Inh. (% Inhibition of SARS-CoV-2) results, for comparison:
O=C(Nc1ccccc1)N1CCN(c2nc(-c3ccccc3)ns2)CC1 :: 93.8%
CSc1nc(-c2ccnc(NC(C)c3ccccc3)c2)c(-c2ccc(F)cc2)[nH]1 (centres unmarked) :: 50.3%
C[C@H](NC(=O)c1sccc1OCc1ccc(Cl)cc1)c1ccccc1 :: 103.1%

Param readout= % Inh. (% Inhibition of SARS-CoV-2); system= SARS-CoV-2; entry= CC(C)(Cc1ccc2ccccc2c1)NC[C@@H](O)COc1cccc(Cl)c1C#N [NPS-2143 (SB262470)] ; returns value.
67.3%

Param readout= % Inh. (% Inhibition of SARS-CoV-2); system= SARS-CoV-2; entry= O=C(CNC(=O)c1cccc(C(F)(F)F)c1)N[C@@H]1CCN(Cc2ccc(Cl)cc2)C1 ; returns value.
85.7%

Param readout= % Inh. (% Inhibition of SARS-CoV-2); system= SARS-CoV-2; entry= CCN1CCN(Cc2ccc(C(=O)Nc3ccc(C)c(Oc4ccc5c(c4)CC(=O)N5)c3)cc2C(F)(F)F)CC1 ; returns value.
77.6%

Param readout= % Inh. (% Inhibition of SARS-CoV-2); system= SARS-CoV-2; entry= COc1cc(SC)ccc1C(=O)N1CCC(Cc2ccccc2)CC1 ; returns value.
71.2%

Param readout= % Inh. (% Inhibition of SARS-CoV-2); system= SARS-CoV-2; entry= OCCCNc1cc(-c2ccnc(Nc3cccc(Cl)c3)n2)ccn1 ; returns value.
54.4%

----------
tested on: CaCo-2 cells; assay: Compound cytotoxicity against CaCo-2 cells at 48 hours; format: cell-based, Human; conditions: read-out: CC50: concentration of 50% cytotoxicity; Table 5, further results of Examples 1 and 2; mean ± spread
Structures can show the parent of a compound that is named as a salt.
Known CC50 of a selection of compounds
Form entry: value (µM) — number only.

Some compounds with known CC50 results, for comparison:
CC(C)(C)c1ccc(/C=C/C(=O)Nc2ccc3c(c2)OCCO3)cc1 [AMG-9810] :: 14.2
C[CH2][Hg][S]c1ccccc1C(=O)[O-].[Na+] [THIMEROSAL] :: 13.5

For Nc1nccc(-c2c(-c3ccc(F)cc3)ncn2C2CCCCC2)n1 [PF-670462] , what is its reported CC50?
8.24

For CCS(=O)(=O)N(Cc1cccnc1)c1cccc(-c2ccc(C#N)cc2)c1 [CBiPES] , what is its reported CC50?
13.4

For Cn1cc(-c2ccc3c(c2)CCN3C(=O)Cc2cccc(C(F)(F)F)c2)c2c(N)ncnc21 [GSK2606414] , what is its reported CC50?
70.4

For Cc1nn(C)c2nc(NNC(=O)Nc3cc(Cl)nc(Cl)c3)cc(C(C)C)c12 [JTE-013] , what is its reported CC50?
16.4

For Cc1cccc2c1CC[C@H](CN1CCC(c3c(Cl)cccc3Cl)CC1)C[C@@H]2O [SB-612111] , what is its reported CC50?
3.67

For NC(=NC1C2CC3CC(C2)CC1C3)Nc1ccc(I)cc1 (centres unmarked) [IPAG] , what is its reported CC50?
11.5

For CCCCC1(C2CCCC2)Cc2cc(OCCCC(=O)O)c(Cl)c(Cl)c2C1=O (centres unmarked) [DCPIB] , what is its reported CC50?
24.6

For CCOC(=O)c1ncc2[nH]c3ccc(OCc4ccccc4)cc3c2c1COC.Cl [ZK-93423] , what is its reported CC50?
0.91

For CC(C)(C)c1cc(/C=C(\C#N)C(N)=S)cc(C(C)(C)C)c1O [Tyrphostin AG 879 (AG 879), Tyrphostin AG 879] , what is its reported CC50?
1.36

For C=C(c1ccccc1OCc1cccc(Cl)c1)n1ccnc1 [Cloconazole HCl] , what is its reported CC50?
33

For FC(F)(F)Oc1ccc2nc(-c3ccc(OCCOCCOc4ccc(-c5nc6ccc(OC(F)(F)F)cc6[nH]5)nc4)cn3)[nH]c2c1 [AI-10-49] , what is its reported CC50?
6.58

----------
tested on: SARS-CoV-2 (BetaCov/Belgium/GHB-03021/2020); test: microbe, parasite or virus in culture; type: cell-based
PARAMETER MEASURED: Maximum confluence reached (%)
Form entry: value (%) — number only.

Some compounds with known Maximum confluence reached (%) results, for comparison:
O=C(CCCN1CCC2(CC1)C(=O)N(Cc1cccc(F)c1)CN2c1ccccc1)c1ccc(F)cc1.O=C(O)/C=C\C(=O)O [3′-fluorobenzylspiperone] :: 43.04
Cn1cc(-c2ccncc2)c(-c2ccc(OCc3ccc4ccccc4n3)cc2)n1 [PF-2545920] :: 36.73
NC(=NC1C2CC3CC(C2)CC1C3)Nc1ccc(I)cc1 (stereo not shown) [IPAG] :: 81.85
CCCc1c(-c2ccc(O)cc2)nn(-c2ccc(O)cc2)c1-c1ccc(O)cc1 [PPT] :: 48.2
COc1cc2ncnc(Nc3cccc(Br)c3)c2cc1OC.Cl [PD153035 (Hydrochloride)] :: 54.45
OCCNC1CCCc2c1[nH]c1ccc(-c3ccccc3)cc21 (stereo not shown) [casin] :: 50.81

For Cl.Nc1nc(NCC2CCC(CNS(=O)(=O)c3cccc4ccccc34)CC2)nc2ccccc12 (stereo not shown) [CGP-71683] , what is its reported Maximum confluence reached (%)?
39.25

----------
tested on: SARS-CoV-2; settings: 10 µM
Under this convention, fulfilled denotes % Inh. (% Inhibition of SARS-CoV-2) strictly below 90% and not fulfilled denotes % Inh. (% Inhibition of SARS-CoV-2) at or above 90%.

COc1ccccc1C(=O)Nc1cccc(NC(=O)c2cccc(C)c2)c1 :: not fulfilled
N[C@H]1CCN(O)C1=O [HA-966-(S)-(−)] :: fulfilled

Could you now look at the following molecule, please?
Check if % Inh. (% Inhibition of SARS-CoV-2) falls below 90% for Cc1ccnc(NC(=O)C(C)c2cccc(C(=O)c3ccccc3)c2)c1 (centres unmarked) .
fulfilled

----------
assay: Compound cytotoxicity against CaCo-2 cells at 48 hours; assay type: cell-based, Human; conditions: human, CaCo-2 cells; Table 5, further results of Examples 1 and 2; mean ± spread
Known CC50 at 48 h of a selection of molecules
Form entry: value (µM) — number only.

For CC(=O)N1CCN(c2ccc(OCC3COC(Cn4ccnc4)(c4ccc(Cl)cc4Cl)O3)cc2)CC1 (centres unmarked) [KETOCONAZOLE] , what is its reported CC50 at 48 h?
28.6

For CNC(=O)c1ccc(C)c(-n2c(C)cc(OCc3ccc(F)cc3F)c(Br)c2=O)c1 [PH-797804] , what is its reported CC50 at 48 h?
20

For CCOC(=O)O[C@]1(C(=O)OCCl)CC[C@H]2[C@@H]3CCC4=CC(=O)C=C[C@]4(C)[C@H]3[C@@H](O)C[C@@]21C [Loteprednol etabonate] , what is its reported CC50 at 48 h?
49

For FC(F)(F)c1ccc(CNc2ccc(Cc3c[nH]c4ncc(Cl)cc34)cn2)cn1 [Pexidartinib] , what is its reported CC50 at 48 h?
41.5

For Cc1cc(-c2ncc(CC(=O)Nc3ccc(-c4cnccn4)cn3)cc2C)ccn1 [LGK-974] , what is its reported CC50 at 48 h?
7.61

For CNC(=O)c1cc(Oc2ccc(NC(=O)Nc3ccc(Cl)c(C(F)(F)F)c3)c(F)c2)ccn1 [Regorafenib (BAY 73-4506), Regorafenib] , what is its reported CC50 at 48 h?
0.97

For S=C(NCc1ccc2c(c1)OCO2)N1CCN(c2ncnc3c2oc2ccccc23)CC1 [Amuvatinib (MP-470), Amuvatinib] , what is its reported CC50 at 48 h?
0.06
